Target: CCR8 (Homo sapiens)
Sequence (P51685 whole entry): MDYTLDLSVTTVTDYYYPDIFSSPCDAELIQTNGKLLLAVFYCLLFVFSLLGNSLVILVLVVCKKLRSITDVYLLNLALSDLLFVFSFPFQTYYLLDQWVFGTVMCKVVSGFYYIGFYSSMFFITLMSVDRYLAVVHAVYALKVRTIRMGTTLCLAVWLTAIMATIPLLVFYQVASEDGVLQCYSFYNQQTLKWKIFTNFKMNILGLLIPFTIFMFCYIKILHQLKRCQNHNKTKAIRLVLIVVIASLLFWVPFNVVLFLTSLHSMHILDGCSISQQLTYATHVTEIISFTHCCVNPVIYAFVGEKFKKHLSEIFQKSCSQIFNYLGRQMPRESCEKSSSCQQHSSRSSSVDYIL
Test: Figure S2a opioid peptide screen on chemokine receptors
Design: dose or concentration left out as unconfirmed
Settings: read-out: CCR8 activity, ctrl+ = 100, Figure S2a; replicate 2
Entries and their measured activation follow.
Remember to quote the unit after the number.

* C[C@H](NC(=O)CNC(=O)[C@@H](NC(=O)[C@H](Cc1ccccc1)NC(=O)CNC(=O)CNC(=O)[C@@H](N)Cc1ccccc1)[C@@H](C)O)C(=O)N[C@@H](CCCNC(=N)N)C(=O)N[C@@H](CCCCN)C(=O)N[C@@H](CO)C(=O)N[C@@H](C)C(=O)N[C@@H](CCCNC(=N)N)C(=O)N[C@@H](CCCCN)C(N)=O [Nociceptin 1-13] | -2.22%
* CC[C@H](C)[C@H](NC(=O)[C@H](CCCNC(=N)N)NC(=O)[C@H](CCCNC(=N)N)NC(=O)[C@H](CC(C)C)NC(=O)[C@H](Cc1ccccc1)NC(=O)CNC(=O)CNC(=O)[C@@H](N)Cc1ccc(O)cc1)C(=O)N[C@@H](CCCNC(=N)N)C(=O)N1CCC[C@H]1C(=O)N[C@@H](CCCCN)C(=O)N[C@@H](CC(C)C)C(=O)N[C@@H](CCCCN)C(=O)N[C@@H](Cc1c[nH]c2ccccc12)C(=O)N[C@@H](CC(=O)O)C(=O)N[C@@H](CC(N)=O)C(=O)N[C@@H](CCC(N)=O)C(=O)O [Dynorphin A] | -35.8%

The compound CC(C)C[C@H](NC(=O)[C@H](CCCCN)NC(=O)[C@H](CCCN=C(N)N)NC(=O)[C@H](C)NC(=O)[C@H](CO)NC(=O)[C@H](CCCCN)NC(=O)[C@H](CCCN=C(N)N)NC(=O)[C@H](C)NC(=O)CNC(=O)[C@@H](NC(=O)[C@H](Cc1ccccc1)NC(=O)CNC(=O)CNC(=O)[C@@H](N)Cc1ccccc1)[C@@H](C)O)C(=O)N[C@@H](C)C(=O)N[C@@H](CC(N)=O)C(=O)N[C@@H](CCC(N)=O)C(=O)O [Nociceptin] , tested on CCR8 (Homo sapiens), showed activation of -5.76%

Data origin: paper PMC7305236
